Measured kinase still bound, per cent of control accompanies every entry in the list below.
# assaySystem: UniProtKB P49674
# Sequence (P49674 whole entry, looked up): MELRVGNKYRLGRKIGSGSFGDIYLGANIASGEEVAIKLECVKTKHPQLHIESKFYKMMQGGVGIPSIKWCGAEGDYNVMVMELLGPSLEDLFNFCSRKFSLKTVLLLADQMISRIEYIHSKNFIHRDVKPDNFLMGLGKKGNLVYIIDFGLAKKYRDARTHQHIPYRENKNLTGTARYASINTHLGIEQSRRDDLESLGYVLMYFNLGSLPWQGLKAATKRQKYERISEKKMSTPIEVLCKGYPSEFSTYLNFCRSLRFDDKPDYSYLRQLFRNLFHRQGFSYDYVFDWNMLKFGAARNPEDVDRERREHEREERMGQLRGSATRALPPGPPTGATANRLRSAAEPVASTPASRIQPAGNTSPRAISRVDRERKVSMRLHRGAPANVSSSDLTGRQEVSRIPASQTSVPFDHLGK
# assayOverview: KINOMEscan competition binding
# conditionContext: compound 10.0 µM
measuredEndpoint: kinase still bound, per cent of control (%)

# lineNotation, result
records = [
    ("COc1cc(N2CCN(C)CC2)ccc1Nc1ncc2c(n1)N(C)c1ccccc1C(=O)N2C", 100),
    ("O=C1NC(=O)/C(=C/c2ccc3nccc(-c4ccncc4)c3c2)S1", 2.6),
    ("CN(C)C/C=C/C(=O)Nc1ccc(C(=O)Nc2cccc(Nc3nccc(-c4cccnc4)n3)c2)cc1", 56),
    ("C=CC(=O)Nc1cc(-n2c(=O)ccc3cnc4ccc(-c5cn[nH]c5)cc4c32)ccc1C", 88),
    ("CCN1CCN(C(=O)Cc2ccc(Nc3ncc(F)c(Nc4ccc(C(=O)Nc5ccccc5Cl)cc4)n3)cc2)CC1", 100),
    ("CCN(CC)CCCCNc1ncc2c(n1)N(C)C(=O)N(c1c(Cl)c(OC)cc(OC)c1Cl)C2", 100),
    ("COc1ccc(N(C(=O)Oc2c(C)cccc2C)c2ccnc(Nc3ccc(N4CCN(C)CC4)cc3)n2)c(OC)c1", 23),
    ("COc1cc2ncnc(-n3nc(-c4ccccn4)nc3N)c2cc1OC", 1.6),
    ("CNC(=O)c1ccc(Nc2cc(Nc3ccccc3S(=O)(=O)C(C)C)c3cc[nH]c3n2)nc1", 29),
    ("O=c1cc(N2CCOCC2)oc2c(-c3cccc4c3sc3ccccc34)cccc12", 76),
    ("C[C@@H](Oc1cc(-c2cnn(C3CCNCC3)c2)cnc1N)c1c(Cl)ccc(F)c1Cl", 100),
    ("N#CCNC(=O)c1ccc(-c2ccnc(Nc3ccc(N4CCOCC4)cc3)n2)cc1", 100),
    ("COc1cc2ncn(-c3cc(OCc4ccccc4C(F)(F)F)c(C(N)=O)s3)c2cc1OC", 77),
    ("NC(=O)Nc1cc(-c2cccc(F)c2)sc1C(=O)N[C@@H]1CCCNC1", 11),
    ("COCC(=O)NC/C=C/c1ccc2ncnc(Nc3ccc(Oc4ccc(C)nc4)c(C)c3)c2c1", 100),
    ("COc1cc(C(=O)N2CCC(N3CCN(C)CC3)CC2)ccc1Nc1ncc2c(n1)N(C)c1ccccc1C(=O)N2C", 95),
    ("CNC(=O)c1cc(Oc2ccc(NC(=O)Nc3ccc(Cl)c(C(F)(F)F)c3)cc2)ccn1", 100),
    ("CS(=O)(=O)N1CCN(Cc2cc3nc(-c4cccc5[nH]ncc45)nc(N4CCOCC4)c3s2)CC1", 100),
    ("Cc1n[nH]c2ccc(-c3cncc(OC[C@@H](N)Cc4c[nH]c5ccccc45)c3)cc12", 0.05),
    ("C=CC(=O)Nc1ccc(CN(C(=O)Nc2c(Cl)c(OC)cc(OC)c2Cl)c2cc(Nc3ccc(N4CCN(C)CC4)cc3)ncn2)cc1", 100),
    ("O=C(Nc1cccc(Nc2ncc(Br)c(NCCc3cnc[nH]3)n2)c1)N1CCCC1", 70),
    ("CCN(CC)CCCCNc1ncc2cc(-c3cc(OC)cc(OC)c3)c(NC(=O)NC(C)(C)C)nc2n1", 100),
]

---

# assaySystem: MAPK15 (human) (UniProt Q8TD08)
# Sequence (Q8TD08 whole entry, looked up): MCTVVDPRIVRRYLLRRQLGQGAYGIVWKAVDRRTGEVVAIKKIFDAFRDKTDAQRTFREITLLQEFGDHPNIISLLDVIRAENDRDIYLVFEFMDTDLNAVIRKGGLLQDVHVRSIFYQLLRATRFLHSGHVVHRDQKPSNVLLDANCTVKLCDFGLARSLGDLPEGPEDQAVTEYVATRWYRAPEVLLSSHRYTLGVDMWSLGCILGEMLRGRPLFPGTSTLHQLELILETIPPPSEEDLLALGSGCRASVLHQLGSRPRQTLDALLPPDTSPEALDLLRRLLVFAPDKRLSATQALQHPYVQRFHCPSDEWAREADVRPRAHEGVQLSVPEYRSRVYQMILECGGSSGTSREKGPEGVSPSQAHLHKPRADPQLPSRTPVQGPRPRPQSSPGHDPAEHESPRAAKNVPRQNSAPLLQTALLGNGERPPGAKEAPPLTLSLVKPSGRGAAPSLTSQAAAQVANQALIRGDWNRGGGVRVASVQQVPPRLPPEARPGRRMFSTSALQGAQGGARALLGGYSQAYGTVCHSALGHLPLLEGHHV
# assayOverview: KINOMEscan competition binding
# conditionContext: compound 10.0 µM
Criterion: kinase still bound, per cent of control strictly under 50%. Met: satisfied. Not met: not satisfied.

# lineNotation, classLabel
data = [
    ("C=CC(=O)Nc1ccc(CN(C(=O)Nc2c(Cl)c(OC)cc(OC)c2Cl)c2cc(Nc3ccc(N4CCN(C)CC4)cc3)ncn2)cc1", "not satisfied"),
    ("CCN1CCN(C(=O)Cc2ccc(Nc3ncc(F)c(Nc4ccc(C(=O)Nc5ccccc5Cl)cc4)n3)cc2)CC1", "not satisfied"),
    ("COCC(=O)NC/C=C/c1ccc2ncnc(Nc3ccc(Oc4ccc(C)nc4)c(C)c3)c2c1", "not satisfied"),
    ("COc1ccc(N(C(=O)Oc2c(C)cccc2C)c2ccnc(Nc3ccc(N4CCN(C)CC4)cc3)n2)c(OC)c1", "not satisfied"),
    ("O=C(Nc1cccc(Nc2ncc(Br)c(NCCc3cnc[nH]3)n2)c1)N1CCCC1", "satisfied"),
    ("CNC(=O)c1cc(Oc2ccc(NC(=O)Nc3ccc(Cl)c(C(F)(F)F)c3)cc2)ccn1", "satisfied"),
    ("NC(=O)Nc1cc(-c2cccc(F)c2)sc1C(=O)N[C@@H]1CCCNC1", "satisfied"),
    ("O=C1NC(=O)/C(=C/c2ccc3nccc(-c4ccncc4)c3c2)S1", "satisfied"),
    ("Cc1n[nH]c2ccc(-c3cncc(OC[C@@H](N)Cc4c[nH]c5ccccc45)c3)cc12", "satisfied"),
    ("COc1cc(C(=O)N2CCC(N3CCN(C)CC3)CC2)ccc1Nc1ncc2c(n1)N(C)c1ccccc1C(=O)N2C", "not satisfied"),
    ("COc1cc(N2CCN(C)CC2)ccc1Nc1ncc2c(n1)N(C)c1ccccc1C(=O)N2C", "not satisfied"),
    ("CCN(CC)CCCCNc1ncc2cc(-c3cc(OC)cc(OC)c3)c(NC(=O)NC(C)(C)C)nc2n1", "not satisfied"),
    ("C[C@@H](Oc1cc(-c2cnn(C3CCNCC3)c2)cnc1N)c1c(Cl)ccc(F)c1Cl", "not satisfied"),
    ("CCN(CC)CCCCNc1ncc2c(n1)N(C)C(=O)N(c1c(Cl)c(OC)cc(OC)c1Cl)C2", "not satisfied"),
    ("CNC(=O)c1ccc(Nc2cc(Nc3ccccc3S(=O)(=O)C(C)C)c3cc[nH]c3n2)nc1", "satisfied"),
    ("CS(=O)(=O)N1CCN(Cc2cc3nc(-c4cccc5[nH]ncc45)nc(N4CCOCC4)c3s2)CC1", "not satisfied"),
    ("C=CC(=O)Nc1cc(-n2c(=O)ccc3cnc4ccc(-c5cn[nH]c5)cc4c32)ccc1C", "satisfied"),
    ("N#CCNC(=O)c1ccc(-c2ccnc(Nc3ccc(N4CCOCC4)cc3)n2)cc1", "satisfied"),
    ("COc1cc2ncn(-c3cc(OCc4ccccc4C(F)(F)F)c(C(N)=O)s3)c2cc1OC", "satisfied"),
    ("O=c1cc(N2CCOCC2)oc2c(-c3cccc4c3sc3ccccc34)cccc12", "not satisfied"),
    ("CN(C)C/C=C/C(=O)Nc1ccc(C(=O)Nc2cccc(Nc3nccc(-c4cccnc4)n3)c2)cc1", "satisfied"),
    ("COc1cc2ncnc(-n3nc(-c4ccccn4)nc3N)c2cc1OC", "satisfied"),
]
